Where do these numbers come from? They come from the supplement of paper PMC11208160.

Assay: recombinant UMI read abundance after kanamycin selection (control-corrected) (log10(CPM+1)); higher = more efficient recombination; extreme values may be limits of the assay; sequences stand for … in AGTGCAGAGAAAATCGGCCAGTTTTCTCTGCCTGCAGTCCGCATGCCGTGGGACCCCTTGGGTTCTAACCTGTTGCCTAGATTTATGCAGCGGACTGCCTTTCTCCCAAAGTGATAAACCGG…AGGTTGGTTTCACT; site = the 11-nt donor
Task for the reader: assign each of the following sequences its reported recombinant UMI read abundance (log10).
// print number alone

Input: # recombinant UMI read abundance (log10) lookup, item GCTTGCCCATGGACCGGTTTTCCCGGTAATCCGTATTTGAT (site GCTTGCCCTGT)
Output: 0

Input: # recombinant UMI read abundance (log10) lookup, item GATTCGACATGGACCGGTTTTCCCGGTAATCCGTATTTGAC (site GATTCGACTGT)
Output: 2.01

Input: # recombinant UMI read abundance (log10) lookup, item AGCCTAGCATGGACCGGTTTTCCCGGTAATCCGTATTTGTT (site AGCCTTGCTAA)
Output: 0.0186

Input: # recombinant UMI read abundance (log10) lookup, item CTAGCTTCATGGACCGGTTTTCCCGGTAATCCGTATTTGTG (site CTAGCTTCTCA)
Output: 2.19

Input: # recombinant UMI read abundance (log10) lookup, item AAAGGCACATGGACCGGTTTTCCCGGTAATCCGTATTTGAA (site AAAGGCACTTT)
Output: 0.56

Input: # recombinant UMI read abundance (log10) lookup, item GGCAATCCATGGACCGGTTTTCCCGGTAATCCGTATTTGAA (site GGAAATCCTTT)
Output: 0

Input: # recombinant UMI read abundance (log10) lookup, item AGGACATCATGGACCGGTTTTCCCGGTAATCCGTATTTGCT (site GGGACATCTAG)
Output: 0.0498

Input: # recombinant UMI read abundance (log10) lookup, item GTTGGTACATGGACCGGTTTTCCCGGTAATCCGTATTTGAC (site GTGGGTACTGT)
Output: 0

Input: # recombinant UMI read abundance (log10) lookup, item GTCGGTACATGGACCGGTTTTCCCGGTAATCCGTATTTGAC (site GTTGGTACTGT)
Output: 0

====

Task for the reader: assign each of the following sequences its reported recombinant barcode read abundance (log10).
Assay: recombinant barcode read abundance after kanamycin selection (control-corrected) (log10(CPM+1)); higher = more efficient recombination; sequences stand for … in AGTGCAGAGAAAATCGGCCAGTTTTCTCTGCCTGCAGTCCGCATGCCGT…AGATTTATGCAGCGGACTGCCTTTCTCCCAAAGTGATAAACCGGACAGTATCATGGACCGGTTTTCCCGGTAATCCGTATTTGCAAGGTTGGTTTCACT; site = the 11-nt target
// print number alone

Input: # recombinant barcode read abundance (log10) lookup, item CAATCTGCTTGGGTTCTAACCTGTTGCCT (site CATTCTGCTAG)
Output: 0.0288

Input: # recombinant barcode read abundance (log10) lookup, item AGTCCCGCTTGGGTTCTAACCTGTTGCCA (site GCATATACTAC)
Output: 0.212

Input: # recombinant barcode read abundance (log10) lookup, item CGGAATGCTTGGGTTCTAACCTGTTGCCT (site CGCAATGCTAG)
Output: 0.0762

Input: # recombinant barcode read abundance (log10) lookup, item TTCTACCCTTGGGTTCTAACCTGTTGCCT (site TACTACCCTAG)
Output: 0.0731

Input: # recombinant barcode read abundance (log10) lookup, item ATGCGAGCTTGGGTTCTAACCTGTTGCGG (site ATGCGAGCTCG)
Output: 0.194

Input: # recombinant barcode read abundance (log10) lookup, item CCAGTCACTTGGGTTCTAACCTGTTGCCT (site CCAGTCACTAG)
Output: 1.88

Input: # recombinant barcode read abundance (log10) lookup, item CTGTGTCCTTGGGTTCTAACCTGTTGCGG (site CTGTGTCCTCC)
Output: 1.84

Input: # recombinant barcode read abundance (log10) lookup, item CCACGGTCTTGGGTTCTAACCTGTTGCCT (site CCACCGTCTAG)
Output: 0.0249

Input: # recombinant barcode read abundance (log10) lookup, item AGCTTACCTTGGGTTCTAACCTGTTGCCT (site GGCTTACCTAG)
Output: 0.105

Input: # recombinant barcode read abundance (log10) lookup, item TAACAGTCTTGGGTTCTAACCTGTTGCGT (site TAACAGTCTAC)
Output: 2.85

Input: # recombinant barcode read abundance (log10) lookup, item CGAACTACTTGGGTTCTAACCTGTTGCCT (site CGAACTACTAG)
Output: 0.0694

Input: # recombinant barcode read abundance (log10) lookup, item TGAGAGACTTGGGTTCTAACCTGTTGCGT (site TGAGAGACTAC)
Output: 2.94

Input: # recombinant barcode read abundance (log10) lookup, item TAGAGCTCTTGGGTTCTAACCTGTTGCTG (site TAGAGCTCTCA)
Output: 0.75

Input: # recombinant barcode read abundance (log10) lookup, item CGTGGTCCTTGGGTTCTAACCTGTTGCTT (site CGTGGTCCTAA)
Output: 0.919

Input: # recombinant barcode read abundance (log10) lookup, item GACGATCCTTGGGTTCTAACCTGTTGCCT (site GTCGATCCTAG)
Output: 0.0852

Input: # recombinant barcode read abundance (log10) lookup, item AGTGAGCCTTGGGTTCTAACCTGTTGCCT (site AGTCAGCCTAG)
Output: 0.0584

Input: # recombinant barcode read abundance (log10) lookup, item CTACTATCTTGGGTTCTAACCTGTTGCGT (site TCGAGTGCTCT)
Output: 0.143

Input: # recombinant barcode read abundance (log10) lookup, item TCCAACCCTTGGGTTCTAACCTGTTGCTT (site TCCAACCCTAA)
Output: 0.391

Input: # recombinant barcode read abundance (log10) lookup, item AGCTTACCTTGGGTTCTAACCTGTTGCCT (site AGCTTACCTAG)
Output: 0.204

Input: # recombinant barcode read abundance (log10) lookup, item GCTCGTACTTGGGTTCTAACCTGTTGCAT (site TCGCGTACTAT)
Output: 0.0401

Input: # recombinant barcode read abundance (log10) lookup, item AGGAACCCTTGGGTTCTAACCTGTTGCTG (site AGGAACCCTTA)
Output: 0.08
